# Lookup of reported Control index keyed by entry
Tested on: Plasmopara viticola
Test: Test on fungicidal effect on downy mildew of grape
Assay type: in vivo
Conditions: 12.5 ppm active ingredient, sprayed on grape seedlings
Measured attribute: Control index

- CC1CN2CC(C)O[Si](CCC[S][Sn]([CH]3CCCCC3)([CH]3CCCCC3)[CH]3CCCCC3)(O1)OC(C)C2 (stereo not drawn): 96%
- c1cc[c]([Sn]([S]CCC[Si]23OCCN(CCO2)CCO3)([c]2ccccc2)[c]2ccccc2)cc1: 97%
- CCC[CH2][Sn]([CH2]CCC)([CH2]CCC)[S]CC[Si]12OC(C)CN(CC(C)O1)CC(C)O2 (stereo not drawn): 94%
- CC1CN2CC(C)O[Si](CC[S][Sn]([c]3ccccc3)([c]3ccccc3)[c]3ccccc3)(O1)OC(C)C2 (stereo not drawn): 98%
- CC1CN2CC(C)O[Si](CCC[S][Sn]([c]3ccccc3)([c]3ccccc3)[c]3ccccc3)(O1)OC(C)C2 (stereo not drawn): 98%
- CCC[CH2][Sn]([CH2]CCC)([CH2]CCC)[S]CCC[Si]12OC(C)CN(CC(C)O1)CC(C)O2 (stereo not drawn): 100%

---

Tested on: carmine mites (Tetranychus telarius L.)
Test: Miticidal effect on carmine mites
Assay type: in vivo
Conditions: 500 ppm active ingredient, spray plus soil, kidney beans, 8 days later
Measured attribute: Degree of injury

- CCC1CN2CCO[Si](CCC[S][Sn]([CH]3CCCCC3)([CH]3CCCCC3)[CH]3CCCCC3)(OCC2)O1 (centres unmarked): -~+
- CC(C)([CH2][Sn]([CH2]C(C)(C)c1ccccc1)([CH2]C(C)(C)c1ccccc1)[S]CC[Si]12OCCN(CCO1)CCO2)c1ccccc1: -~+
- CCCCCCC[CH2][Sn]([CH2]CCCCCCC)([CH2]CCCCCCC)[S]CCC[Si]12OCCN(CCO1)CCO2 [compound 15]: -
- CCC1CN2CCO[Si](CCC[S][Sn]([CH2]C(C)C)([CH2]C(C)C)[CH2]C(C)C)(O1)OC(CC)C2 (centres unmarked): -
- CCC1CN2CCO[Si](CCC[S][Sn]([CH2]C(C)(C)c3ccccc3)([CH2]C(C)(C)c3ccccc3)[CH2]C(C)(C)c3ccccc3)(OCC2)O1 (centres unmarked): -
- CCC1CN2CC(C)O[Si](CCC[S][Sn]([CH]3CCCCC3)([CH]3CCCCC3)[CH]3CCCCC3)(OC(C)C2)O1 (centres unmarked): -
- CCC1CN2CCO[Si](CCC[S][Sn]([CH]3CCCCC3)([CH]3CCCCC3)[CH]3CCCCC3)(O1)OC(CC)C2 (centres unmarked): -~+
- CC(C)(C)[CH2][Sn]([CH2]C(C)(C)C)([CH2]C(C)(C)C)[S]CC[Si]12OCCN(CCO1)CCO2: -

---

Tested on: carmine mites (Tetranychus telarius L.)
Assay: Miticidal effect on carmine mites
Format: in vivo
Set-up: key: -: Hardly any injury was observed.; +: Some injury was observed.; ++: The same injury as in the non-treated area was noted
Settings: 500 ppm active ingredient, spray plus soil, kidney beans, 8 days later
Measured attribute: Degree of injury

* CCC1CN2CC(C)O[Si](CCC[S][Sn]([CH2]C(C)(C)c3ccccc3)([CH2]C(C)(C)c3ccccc3)[CH2]C(C)(C)c3ccccc3)(OC(C)C2)O1 (stereo not shown) | -
* C1CC[CH]([Sn]([S]CCC[Si]23OCCN(CCO2)CCO3)([CH]2CCCCC2)[CH]2CCCCC2)CC1 | -
* CC1CN2CC(C)O[Si](CC[S][Sn]([CH2]C(C)(C)c3ccccc3)([CH2]C(C)(C)c3ccccc3)[CH2]C(C)(C)c3ccccc3)(O1)OC(C)C2 (stereo not shown) | -~+
* CC1CN2CC(C)O[Si](CCC[S][Sn]([c]3ccccc3)([c]3ccccc3)[c]3ccccc3)(O1)OC(C)C2 (stereo not shown) | -
* CCCCCCC[CH2][Sn]([CH2]CCCCCCC)([CH2]CCCCCCC)[S]CCC[Si]12OC(C)CN(CC(C)O1)CC(C)O2 (stereo not shown) [compound 30] | -
* CCCCCCC[CH2][Sn]([CH2]CCCCCCC)([CH2]CCCCCCC)[S]CCC[Si]12OC(C)CN(CC(C)O1)CC(C)O2 (stereo not shown) [compound 16] | -
* CCC[CH2][Sn]([CH2]CCC)([CH2]CCC)[S]CCC[Si]12OCCN(CCO1)CC(CC)O2 (stereo not shown) | -~+
* CC1CN2CC(C)O[Si](CCC[S][Sn]([CH]3CCCCC3)([CH]3CCCCC3)[CH]3CCCCC3)(O1)OC(C)C2 (stereo not shown) | -
* CCCCCCC[CH2][Sn]([CH2]CCCCCCC)([CH2]CCCCCCC)[S]CCC[Si]12OCCN(CCO1)CCO2 [compound 29] | -~+
* CCC1CN2CCO[Si](CCC[S][Sn]([CH2]C(C)(C)c3ccccc3)([CH2]C(C)(C)c3ccccc3)[CH2]C(C)(C)c3ccccc3)(O1)OC(CC)C2 (stereo not shown) | -
* CC(C)([CH2][Sn]([CH2]C(C)(C)c1ccccc1)([CH2]C(C)(C)c1ccccc1)[S]CCC[Si]12OCCN(CCO1)CCO2)c1ccccc1 | -
* CCC[CH2][Sn]([CH2]CCC)([CH2]CCC)[S]CCC[Si]12OC(C)CN(CC(C)O1)CC(C)O2 (stereo not shown) | -
* CC1CN2CC(C)O[Si](CCC[S][Sn]([CH2]C(C)(C)c3ccccc3)([CH2]C(C)(C)c3ccccc3)[CH2]C(C)(C)c3ccccc3)(O1)OC(C)C2 (stereo not shown) | -

---

Minimum inhibitory concentration values, listed per item
Tested on: Penicillium citrinum ATCC 9849
Assay: Test on fungicidal effect on fungi (agar medium diluting method)
Assay type: cell-based
Details: PDA, 27° C., cultivation period 4 days
Measured attribute: Minimum inhibitory concentration

- CCC1CN2CC(C)O[Si](CCC[S][Sn]([c]3ccccc3)([c]3ccccc3)[c]3ccccc3)(OC(C)C2)O1 (centres unmarked): < 12.5 ppm
- CC[CH2][Sn]([CH2]CC)([CH2]CC)[S]CCC[Si]12OCCN(CCO1)CCO2: < 2.5 ppm
- CCC[CH2][Sn]([CH2]CCC)([CH2]CCC)[S]CCC[Si]12OC(C)CN(CC(C)O1)CC(C)O2 (centres unmarked): < 12.5 ppm
- CC[CH2][Sn]([CH2]CC)([CH2]CC)[S]CCC[Si]12OCCN(CC(CC)O1)CC(CC)O2 (centres unmarked): < 2.5 ppm
- CC(C)[CH2][Sn]([CH2]C(C)C)([CH2]C(C)C)[S]CCC[Si]12OCCN(CCO1)CCO2: < 12.5 ppm
- CC[CH2][Sn]([CH2]CC)([CH2]CC)[S]CCC[Si]12OC(C)CN(CC(C)O1)CC(C)O2 (centres unmarked): < 12.5 ppm
- CC(C)[CH2][Sn]([CH2]C(C)C)([CH2]C(C)C)[S]CCC[Si]12OC(C)CN(CC(C)O1)CC(C)O2 (centres unmarked): < 12.5 ppm
- CCC[CH2][Sn]([CH2]CCC)([CH2]CCC)[S]CCC[Si]12OCCN(CCO1)CC(C)O2 (centres unmarked): < 12.5 ppm

---

Tested on: Culex pipiens
Experiment: Test on insecticidal effect on Culex pipiens
Type: in vivo
Conditions: 3.5 ppm, final-instar larvae, next day; wettable powder of Formulation Example 5 (contains Fenitrothion); 1440 min
Measured attribute: Death rate

* c1cc[c]([Sn]([S]CC[Si]23OCCN(CCO2)CCO3)([c]2ccccc2)[c]2ccccc2)cc1 | B (less than 90% to 10%)
* CCC[CH2][Sn]([CH2]CCC)([CH2]CCC)[S]CCC[Si]12OCCN(CCO1)CCO2 | A (90% or higher)
* C1CC[CH]([Sn]([S]CC[Si]23OCCN(CCO2)CCO3)([CH]2CCCCC2)[CH]2CCCCC2)CC1 | C (less than 10%)
* C1CC[CH]([Sn]([S]CCC[Si]23OCCN(CCO2)CCO3)([CH]2CCCCC2)[CH]2CCCCC2)CC1 | A (90% or higher)
* CCC[CH2][Sn]([CH2]CCC)([CH2]CCC)[S]CC[Si]12OC(C)CN(CC(C)O1)CC(C)O2 (stereo not drawn) | B (less than 90% to 10%)
* CC[CH2][Sn]([CH2]CC)([CH2]CC)[S]CCC[Si]12OCCN(CCO1)CCO2 | C (less than 10%)
* CCC1CN2CCO[Si](CCC[S][Sn]([c]3ccccc3)([c]3ccccc3)[c]3ccccc3)(OCC2)O1 (stereo not drawn) | B (less than 90% to 10%)
* CC1CN2CC(C)O[Si](CCC[S][Sn]([CH]3CCCCC3)([CH]3CCCCC3)[CH]3CCCCC3)(O1)OC(C)C2 (stereo not drawn) | B (less than 90% to 10%)
* CC[CH2][Sn]([CH2]CC)([CH2]CC)[S]CCC[Si]12OC(C)CN(CC(C)O1)CC(C)O2 (stereo not drawn) | B (less than 90% to 10%)

Entry source: patent US4654368A
